pIC50: −log10 of the molar value.
# collection of pIC50 values tested on Somatostatin receptor type 3 (Homo sapiens)
result_type: pIC50

compound=Cc1csc(-c2c[nH]c([C@H]3Cc4c([nH]c5ccccc45)[C@@H](C4CCOCC4)N3)n2)c1 test_system="Somatostatin receptor type 3 (Homo sapiens)" test_value=7.47
compound=Fc1ccc(-c2cc([C@H]3Cc4c([nH]c5ccccc45)[C@@H](C4CCOCC4)N3)[nH]n2)cc1 test_system="Somatostatin receptor type 3 (Homo sapiens)" test_value=6.55
compound=Cc1ccc(-c2c[nH]c([C@H]3Cc4c([nH]c5ccccc45)[C@@H](C4CCOCC4)N3)n2)cc1 test_system="Somatostatin receptor type 3 (Homo sapiens)" test_value=7.48

P. c1ccc2c3c([nH]c2c1)[C@@H](C1CCOCC1)N[C@@H](c1nc(-c2ccncc2)c[nH]1)C3
Q. c1ccc2c3c([nH]c2c1)[C@@H](C1CCOCC1)N[C@@H](c1nc(-c2ccsc2)c[nH]1)C3
Between P and Q , which one has the lower reported pIC50 value? // return label of chosen record
P
(P: 6.79, Q: 7.82)

A. Cc1nc([C@]2(c3cnn(C)c3)N[C@@H](c3nc(-c4ccccn4)c[nH]3)Cc3c2[nH]c2ccccc32)no1
B. FC(F)(F)c1ccc(-c2c[nH]c([C@H]3Cc4c([nH]c5ccccc45)[C@@H](C4CCOCC4)N3)n2)cc1
Looking only at measured pIC50, which entry is lower, A or B ? // caller expects the label of the chosen entry
B
(B: 7.59, A: 8.03)

1. Cc1nc([C@@]2(c3cnn(C)c3)N[C@@H](c3nc(-c4ccccn4)c[nH]3)Cc3c2[nH]c2ccccc32)no1
2. N#Cc1ccc(-c2c[nH]c([C@H]3Cc4c([nH]c5ccccc45)[C@@H](C4CCOCC4)N3)n2)cc1
3. FC(F)(F)Oc1cccc(-c2c[nH]c([C@H]3Cc4c([nH]c5ccccc45)[C@@H](C4CCOCC4)N3)n2)c1
4. Fc1ccc(-c2c[nH]c([C@H]3Cc4c([nH]c5ccccc45)[C@@H](C4CCOCC4)N3)n2)cc1F
Please list these in order of increasing pIC50. Thank you! Please, when replying, give the labels in the order that was requested.
2, 3, 1, 4
(2: 6.85, 3: 7.37, 1: 7.62, 4: 8.74)

I. Oc1ccc(-c2c[nH]c([C@H]3Cc4c([nH]c5ccccc45)[C@@H](C4CCOCC4)N3)n2)cc1
II. Cn1cc(-c2ccc(F)cc2)nc1[C@H]1Cc2c([nH]c3ccccc23)[C@@H](C2CCOCC2)N1
III. FC(F)(F)Oc1ccc(-c2c[nH]c([C@H]3Cc4c([nH]c5ccccc45)[C@@H](C4CCOCC4)N3)n2)cc1
IV. COc1cccc(-c2c[nH]c([C@H]3Cc4c([nH]c5ccccc45)[C@@H](C4CCOCC4)N3)n2)c1
Put the items in sequence by pIC50, from largest down. Order the labels as requested and give them as your answer.
IV, I, II, III
(IV: 8.34, I: 7.47, II: 6.65, III: 6.19)

----------
Assay: in vivo
Settings: rat, po, 2 mg/kg
result_type: bioavailability (%)
Value expressed in %; do not type the unit.

// bioavailability value for CC1(c2nc(-c3ccccc3)c[nH]2)Cc2c([nH]c3ccccc23)C(C2CCOCC2)N1 (stereo in doubt; 6a) : 49

----------
Experiment: Half life in mouse at 1 mg/kg, iv
Format: ADME, organism-based
Conditions: in vivo
result_type: half-life (h)
Unit h implied. Number only.

// half-life value for Fc1ccc(-c2c[nH]c([C@H]3Cc4c([nH]c5ccccc45)[C@@H](C4CCOCC4)N3)n2)cc1 : 3.6

----------
In what follows, each item is paired with its IC50 for Voltage-gated inwardly rectifying potassium channel KCNH2 (Homo sapiens, UniProt Q12809).
// note: answer is a bare numeric in nM

IC50 for CC(C)(C)c1c[nH]c(C2Cc3c([nH]c4ccccc34)C(C3CCOCC3)N2)n1 (stereo not given) is 2940

----------
Target: Somatostatin receptor type 5 (Homo sapiens, UniProt P35346)
Sequence (P35346 whole entry): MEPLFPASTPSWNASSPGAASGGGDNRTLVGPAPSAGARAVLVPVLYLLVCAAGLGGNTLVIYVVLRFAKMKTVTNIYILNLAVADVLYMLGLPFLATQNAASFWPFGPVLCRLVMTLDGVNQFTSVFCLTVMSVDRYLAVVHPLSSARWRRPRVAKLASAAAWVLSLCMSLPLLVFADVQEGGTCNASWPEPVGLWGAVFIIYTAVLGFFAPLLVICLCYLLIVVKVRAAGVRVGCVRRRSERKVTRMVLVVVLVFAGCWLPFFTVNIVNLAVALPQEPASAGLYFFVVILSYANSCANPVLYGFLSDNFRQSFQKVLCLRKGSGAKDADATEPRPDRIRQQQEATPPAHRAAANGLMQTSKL
result_type: IC50 (µM)
Please reply with the bare figure in µM and do not write the unit itself.

Item Cc1nc([C@]2(c3cnn(C)c3)N[C@@H](c3nc(-c4ccc(F)cn4)c[nH]3)Cc3c2[nH]c2ccccc32)no1 was tested on Somatostatin receptor type 5 (Homo sapiens, UniProt P35346); the reported IC50 is 10

----------
pEC50: −log10 of the molar value.
Here we list compounds with their recorded pEC50 when tested on Somatostatin receptor type 3 (Homo sapiens, UniProt P32745).
Sequence (P32745 whole entry): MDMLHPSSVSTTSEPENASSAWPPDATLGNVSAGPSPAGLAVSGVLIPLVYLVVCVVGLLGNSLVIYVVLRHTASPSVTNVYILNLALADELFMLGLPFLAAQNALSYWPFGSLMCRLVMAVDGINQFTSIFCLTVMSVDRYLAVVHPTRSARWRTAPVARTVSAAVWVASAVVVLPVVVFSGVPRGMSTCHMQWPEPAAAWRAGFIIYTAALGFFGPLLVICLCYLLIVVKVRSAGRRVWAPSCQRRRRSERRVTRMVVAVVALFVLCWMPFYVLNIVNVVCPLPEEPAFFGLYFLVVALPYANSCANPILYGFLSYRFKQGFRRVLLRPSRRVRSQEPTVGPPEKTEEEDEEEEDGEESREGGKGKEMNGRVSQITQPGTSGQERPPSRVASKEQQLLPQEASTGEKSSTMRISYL
result_type: pEC50

compound=Fc1ccc(-c2c[nH]c([C@H]3Cc4c([nH]c5ccccc45)[C@@H](C4CCOCC4)N3)n2)cc1 test_value=8.24
compound=Clc1ccc(-c2c[nH]c([C@H]3Cc4c([nH]c5ccccc45)[C@@H](C4CCOCC4)N3)n2)cc1 test_value=7.30
compound=N#Cc1cccc(-c2c[nH]c([C@H]3Cc4c([nH]c5ccccc45)[C@@H](C4CCOCC4)N3)n2)c1 test_value=6.36

P. Cc1nc([C@]2(c3cnn(C)c3)N[C@@H](c3nc(-c4ccccc4)c[nH]3)Cc3c2[nH]c2ccccc32)no1
Q. CC(C)(C)c1c[nH]c(C2Cc3c([nH]c4ccccc34)C(C3CCOCC3)N2)n1 (stereo not drawn)
Returns: the argument ( P or Q ) having the larger pEC50. Your choice should be expressed through its label.
P

----------
Assay: Clearance in mouse plasma at 4 mg/kg, iv
result_type: clearance (mL/min/kg)
Use mL/min/kg as the unit, but write only the number.

clearance in this record for CC1(c2nc(-c3ccccc3)c[nH]2)Cc2c([nH]c3ccccc23)C(C2CCOCC2)N1 (stereo in doubt; 6a) : 77

----------
Test system Somatostatin receptor type 3 (Homo sapiens, UniProt P32745), EC50 listed for each of the compounds.
result_type: EC50 (µM)

Example results:
line_notation=Cn1c2c(c3ccccc31)C[C@H](c1nc(-c3ccc(F)cc3)c[nH]1)N[C@@H]2C1CCOCC1 result_type=EC50 test_value=0.15
line_notation=Fc1ccc(-c2c[nH]c([C@H]3Cc4c([nH]c5ccccc45)[C@@H](C4CCOCC4)N3)n2)nc1 result_type=EC50 test_value=0.067
line_notation=Fc1cccc(-c2c[nH]c([C@H]3Cc4c([nH]c5ccccc45)[C@@H](C4CCOCC4)N3)n2)c1 result_type=EC50 test_value=0.088

I. COc1cccc(-c2c[nH]c([C@H]3Cc4c([nH]c5ccccc45)[C@@](c4cnn(C)c4)(c4noc(C)n4)N3)n2)n1
II. Fc1ccc(-c2c[nH]c([C@H]3Cc4c([nH]c5ccccc45)[C@@H](C4CCOCC4)N3)n2)cc1F
Two entries are listed, I and II . Which one carries the higher EC50? Selection: enter the item's label.
I
(I: 0.017 µM, II: 0.0064 µM)

I. Fc1ccccc1-c1c[nH]c([C@H]2Cc3c([nH]c4ccccc34)[C@@H](C3CCOCC3)N2)n1
II. COc1cccc(-c2c[nH]c([C@H]3Cc4c([nH]c5ccccc45)[C@](c4cnn(C)c4)(c4noc(C)n4)N3)n2)n1
Rank I against II by their EC50 values and give the higher one. When you have decided, please share the label of that item.
I

----------
Assay: Volume of distribution at steady state in mouse at 4 mg/kg, iv and at 10 mg/kg, po
Settings: in vivo
result_type: Vd (L/kg)
Kindly provide the numeric value in L/kg only, without the unit symbol.

Noted for CC1(c2nc(-c3ccccc3)c[nH]2)Cc2c([nH]c3ccccc23)C(C2CCOCC2)N1 (stereo in doubt; 6a) : its Vd reads 4.6

----------
Target: Somatostatin receptor type 3 (Homo sapiens, UniProt P32745)
pEC50: −log10 of the molar value.
result_type: pEC50

Guide cases for pEC50, answers given:
compound=Cc1nc([C@@]2(c3cnn(C)c3)N[C@@H](c3nc(-c4ccccc4)c[nH]3)Cc3c2[nH]c2ccccc32)no1 test_system="Somatostatin receptor type 3 (Homo sapiens, UniProt P32745)" result_type=pEC50 test_value=8.48
compound=c1ccc(-c2c[nH]c([C@H]3Cc4c([nH]c5ccccc45)[C@@H](C4CCOCC4)N3)n2)nc1 test_system="Somatostatin receptor type 3 (Homo sapiens, UniProt P32745)" result_type=pEC50 test_value=6.71

1. c1ccc2c3c([nH]c2c1)[C@@H](C1CCOCC1)N[C@@H](c1nc(-c2cnccn2)c[nH]1)C3
2. COc1ccc(-c2c[nH]c([C@H]3Cc4c([nH]c5ccccc45)[C@@H](C4CCOCC4)N3)n2)cc1
3. c1ccc2c3c([nH]c2c1)C(C1CCOCC1)NC(c1nc(C2CCCCC2)c[nH]1)C3 (stereo not drawn)
4. c1ccc(-c2c[nH]c([C@H]3Cc4c([nH]c5ccccc45)[C@@H](C4CCOCC4)N3)n2)cc1
Arrange by pEC50, high to low. Sort the labels as requested; that list is your answer.
4, 2, 3, 1
(4: 7.66, 2: 6.74, 3: 6.16, 1: 5.35)
